# Tested on: Calu-3
# PROTOCOL TEXT: cell viability relative to DMSO; higher = less toxic
# MEASUREMENT CONDITIONS: 72 h; 100 nM
ENDPOINT: cell viability (%)
// units = %; emit number, no label

Study these solved cases before continuing.
COMPOUND	TARGET OR SYSTEM	ENDPOINT	UNIT ANNOTATION	MEASURED RESULT
O=C(Nc1cccnn1)N1CCC(=Cc2cccc(Oc3ccc(C(F)(F)F)cn3)c2)CC1	Calu-3	cell viability	%	92
COc1ccsc1CNCC[C@@]1(c2ccccn2)CCOC2(CCCC2)C1 [TRV130]	Calu-3	cell viability	%	101
C[C@H](Nc1cc(NS(=O)(=O)N2CCC2)nc(SCc2cccc(F)c2F)n1)[C@@H](O)CO [SRT3190]	Calu-3	cell viability	%	99.9

Which cell viability reading was recorded for the compound CN(C)CCCN1c2ccccc2Sc2ccc(Cl)cc21 [chlorpromazine] ?
109

Query: cell viability; subject: CC(C)[N+](C)(CCC(C(N)=O)(c1ccccc1)c1ccccc1)C(C)C [isopropamide-iodide]
96.2

// returns reported cell viability for input CCS(=O)(=O)N(C)[C@@H]1c2cc(C#N)ccc2OC(C)(C)[C@H]1O.CCS(=O)(=O)N(C)[C@H]1c2cc(C#N)ccc2OC(C)(C)[C@@H]1O (racemic) [chromanol-(+/-)]
92.5

Can you share its cell viability? I mean this compound: OC1=c2ccccc2=C(NC2CCCCC2)/C1=C\c1ccccc1
90.1

# lookup: cell viability of NCCCNCCCCNCCCN [spermine]
81.9

Field request: cell viability | item: COC(=O)Nc1ccc(-c2nc(N3CCOCC3)c3cnn(C4CCN(Cc5cccnc5)CC4)c3n2)cc1 [WYE-687]
79.2

----------
Reported cell viability is given for each of the following molecules.
# System: Vero E6
# PROTOCOL TEXT: cell viability relative to DMSO; higher = less toxic
# MEASUREMENT CONDITIONS: 72 h; 10000 nM
Write the quantity with the unit trailing the number.

Known results for molecules:
                                   molecule  measured_result
0  CC(=O)N1CCC(C(=O)N(CCCN2CCC(Cc3ccc(C(N)=O)cc3)CC2)c2ccc(C)c(Cl)c2)CC1             106%
1  CC1CCN(CC[C@H]2CCCN2S(=O)(=O)c2cccc(O)c2)CC1             105%
2  Cc1cc(N)c2ccccc2[n+]1CCCCCCCCCC[n+]1c(C)cc(N)c2ccccc21            87.4%
3  O=C1CC[C@@](c2ccccc2)(C2CCN(Cc3ccc(I)cc3)CC2)C(=O)N1 [iododexetimide]              93%
4  O=C1NC(=O)[C@@H](c2cn3c4c(cccc24)CCC3)[C@@H]1c1c[nH]c2ccccc12 [tivantinib]            28.2%

Need cell viability of COc1cc2ncnc(Nc3cccc(Cl)c3)c2cc1OC , thanks.
48.2%

Look at this molecule and give its reported cell viability. C[C@@H](CCCCC(=O)Nc1ccc(C(F)(F)F)cc1)NCCc1c[nH]cn1
108%

cell viability lookup needed for O[C@H]1CC[C@H](Nc2nc(-c3ccccc3)nc3[nH]ccc23)CC1 , thanks.
91.4%

----------
# Test system: Vero E6
# PROTOCOL TEXT: cell viability relative to DMSO; higher = less toxic
# MEASUREMENT CONDITIONS: 72 h; 10 nM
In this section, each of the molecules is paired with its reported cell viability.
Quick reminder: number only, in %, skip the unit.

A selection of reference data follows.
>>> df
                                   molecule  measured_result
0  O=S(=O)(NCCNC/C=C/c1ccc(Br)cc1)c1cccc2cnccc12 [H-89]             97.6
1  C/C(=N\NC(=O)C(NC(=O)c1ccccc1)c1n[nH]c(=O)c2ccccc12)c1cccc(Br)c1 (centres undefined)             97.9
2  CO[C@@]1(NC(=O)C(C(=O)O)c2ccc(O)cc2)C(=O)N2C(C(=O)O)=C(CSc3nnnn3C)CO[C@@H]21 (some centres undefined) [moxalactam]             97.5

Under Vero E6: cell viability value of Cc1ccc(-n2nc(C(C)(C)C)cc2NC(=O)Nc2ccc(OCCN3CCOCC3)c3ccccc23)cc1 [doramapimod] ?
95.2

----------
The entries below come with measured cell viability values attached.
# Tested on: HepG2
# PROTOCOL TEXT: cell viability relative to DMSO; higher = less toxic
# MEASUREMENT CONDITIONS: 72 h; 10 nM
Counter-ions that a name gives are not always drawn.
Note: a bare number is incomplete; add the unit.

# annotated cases, reported cell viability shown
COMPOUND	cell viability
Nc1nccc(Oc2ccc(NC(=O)c3cn(COP(=O)(O)O)cc(-c4ccc(F)cc4)c3=O)cc2F)c1Cl	102%
CC1(C)[C@@H](OC(=O)CCC(=O)O)CC[C@]2(C)[C@H]3C(=O)C=C4[C@@H]5C[C@@](C)(C(=O)O)CC[C@]5(C)CC[C@@]4(C)[C@]3(C)CC[C@@H]12 [CARBENOXOLONE SODIUM]	98%
CC/C(=C(/CC)c1ccc(OP(=O)(O)O)cc1)c1ccc(OP(=O)(O)O)cc1	97.6%
O=C(c1ccccc1)c1ccc2n1CCC2C(=O)O (configuration not stated)	107%
C=CC[N@@+]12CC[C@@]34c5ccccc5N5/C=C6/[C@H]7C[C@H]8[C@@]9(CC[N@@+]8(CC=C)C/C7=C/CO)c7ccccc7N(/C=C(/[C@@H](C[C@@H]31)/C(=C\CO)C2)[C@H]54)[C@@H]69	107%

What value of measured cell viability is listed for CCc1cccc2c3c([nH]c12)C(CC)(CC(=O)O)OCC3 (configuration not stated) ?
107%

Query: cell viability; subject: CCCCc1nc(Cl)c(C(=O)O)n1Cc1ccc(-c2ccccc2-c2nn[nH]n2)cc1
102%

Please report the recorded cell viability for O=C(OOC(=O)c1ccccc1)c1ccccc1 [benzoyl-peroxide] .
104%

Given COc1ccc2cc(CCC(C)=O)ccc2c1 , state its recorded cell viability.
97.8%

Look up cell viability: CCC(NC(C)C)C(O)c1ccc(O)c2[nH]c(=O)ccc12 (configuration not stated)
93.9%

Query: cell viability; subject: CC(=O)N(CC(C)C(=O)O)c1c(I)cc(I)c(N)c1I (configuration not stated)
102%

Find the recorded cell viability belonging to OCCNCCCOc1cccc(Cl)c1Cl and report it.
96.1%

What does the record list as cell viability for CCOC(=O)NNc1nncc2ccccc12 ?
97.3%

# input compound: CN[C@H]1CC[C@@H](c2ccc(Cl)c(Cl)c2)c2ccccc21 [SERTRALINE HYDROCHLORIDE] ; wanted: its cell viability
108%

----------
# Tested on: Caco-2
# PROTOCOL TEXT: cell viability relative to DMSO; higher = less toxic
# MEASUREMENT CONDITIONS: 72 h; 10 nM
ENDPOINT: cell viability (%)
Your answer is read as %, so omit the unit and give the number.

Would you please look over these solved cases?
COMPOUND	UNIT ANNOTATION	MEASURED RESULT
O[C@@H]1CO[C@H]2[C@@H]1OC[C@@H]2O [isosorbide]	%	93.7
CC1(C)[C@@H](OC(=O)CCC(=O)O)CC[C@]2(C)[C@H]3C(=O)C=C4[C@@H]5C[C@@](C)(C(=O)O)CC[C@]5(C)CC[C@@]4(C)[C@]3(C)CC[C@@H]12 [CARBENOXOLONE SODIUM]	%	96.6
CCCCc1ncc(/C=C(\Cc2cccs2)C(=O)O)n1Cc1ccc(C(=O)O)cc1	%	106
Cc1cccc(C(=O)NCN2CCN(c3ccccc3C#N)CC2)c1	%	103

Which cell viability value belongs to O=C(OCCOCCO)c1ccccc1Nc1cccc(C(F)(F)F)c1 [etofenamate] ?
91

----------
# System: HepG2
# PROTOCOL TEXT: cell viability relative to DMSO; higher = less toxic
# MEASUREMENT CONDITIONS: 72 h; 10000 nM
ENDPOINT: cell viability (%)
Unit % implied. Number only.

Looking for the measured cell viability of O=C(Nc1ccc(S(=O)(=O)Nc2ccccc2Cl)c(Cl)c1)c1ccccn1 , can you help?
103

# get_value(readout='cell viability', item= CCN1CCCC(OC(=O)C(c2ccccc2)c2ccccc2)C1 (stereo not drawn) [piperidolate] )
110

GET /values?readout=cell viability&item= Oc1ccc(Nc2nc(-c3ccc(Cl)cc3)cs2)cc1 [SKI-II]
98

----------
Measured cell viability accompanies every entry in the list below.
# Test system: Vero E6
# PROTOCOL TEXT: cell viability relative to DMSO; higher = less toxic
# MEASUREMENT CONDITIONS: 72 h; 10 nM
Record the value in %, omitting the unit from your answer.

Consider the following illustrative entries.
COMPOUND	cell viability [%]
Cc1oc(=O)oc1COC(=O)C1=C([C@H]2CCCO2)S[C@@H]2[C@@H]([C@@H](C)O)C(=O)N12	94.1
CCC(C)CCCC(=O)N[C@@H](CCN)C(=O)N[C@H](C(=O)N[C@@H](CCN)C(=O)N[C@H]1CCNC(=O)[C@H]([C@@H](C)O)NC(=O)[C@H](CCN)NC(=O)[C@H](CCN)NC(=O)[C@H](CC(C)C)NC(=O)[C@@H](CC(C)C)NC(=O)[C@H](CCN)NC1=O)[C@@H](C)O (some centres not stated)	101
COc1cccc(C(=O)CCN[C@@H](C)[C@H](O)c2ccccc2)c1	99.8
Nc1cccc2c(=O)[nH][nH]c(=O)c12 [monosodium-alpha-luminol]	92.7
O=C(Nc1cccc(Cl)c1)c1ccccn1	102
CC(C)n1nc(C#Cc2ccccc2)c2c(N)ncnc21	99.7

Attention now shifts to the item below.
Notebook entry, Vero E6 assay: cell viability of N[C@@H](C[C@@H](F)C(=O)O)C(=O)O = ?
93.8
